Protein target, amino acids: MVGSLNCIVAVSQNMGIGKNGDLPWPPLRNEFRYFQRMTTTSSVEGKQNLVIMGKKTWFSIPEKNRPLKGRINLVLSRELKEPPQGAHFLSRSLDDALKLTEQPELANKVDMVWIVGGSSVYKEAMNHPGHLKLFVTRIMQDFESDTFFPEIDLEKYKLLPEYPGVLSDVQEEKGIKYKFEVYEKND
experimentalEndpoint: Ki (nM)

1: Nc1nc(N)c2nc(CNc3ccc4c(c3)CN(C(CCC(=O)O)C(=O)O)C4=O)cnc2n1 (racemic)
2: Nc1nc(N)c2nc(CNc3ccc4c(c3)CN([C@@H](CCC(=O)O)C(=O)O)C4=O)cnc2n1
Input: Dear colleague, could you let me know whether 1 or 2 has the lower recorded Ki? Thanks. Write the label of whichever entry you select.
Output: 2
(2: 0.034 nM, 1: 0.077 nM)

// provenance: ChEMBL document CHEMBL1149317
